# Tested on: SW684
# MEASUREMENT PROTOCOL: relative viability vs DMSO control (72 h) (fraction); higher = more viable cells
# ASSAY CONDITIONS: 0.00051 µM
MEASUREMENT NAME: relative viability
Output: the number by itself.

COMPOUND | relative viability
N#CCC1(n2cc(-c3ncnc4[nH]ccc34)cn2)CN(C2CCN(C(=O)c3ccnc(C(F)(F)F)c3F)CC2)C1 [Itacitinib] | 1.09
CO[C@@H]1[C@H](N(C)C(=O)c2ccccc2)C[C@H]2O[C@]1(C)n1c3ccccc3c3c4c(c5c6ccccc6n2c5c31)C(=O)NC4 [Midostaurin] | 1.05
C=CC(=O)Nc1cccc(Nc2nc(Nc3ccc(N4CCN(C(C)=O)CC4)cc3OC)ncc2C(F)(F)F)c1 [Rociletinib] | 1.16

Lab note: next compound to report on.
Which relative viability value is on record for NC(=O)c1cnc2[nH]ccc2c1N[C@@H]1[C@@H]2CC3C[C@H]1C[C@@](O)(C3)C2 [Peficitinib] ?
1.09
